- Test: AUC (0 to 24 hrs) in C57BL/6 mouse plasma at 10 mg/kg, po
- Type: ADME, organism-based
- Parameters: time < 24 hr, dose 10 mg/kg, route po

| Chemical smiles | Units | AUC(0-t) at 24 h |
| --- | --- | --- |
| COC(=O)N1C[C@@H](C)N(c2ncc3[nH]nc(-c4ccc(N5CCN(C)CC5)cc4)c3n2)[C@@H](C)C1 | µM·h | 26.2 |

###

- Test: AUC (0 to 24 hrs) in C57BL/6 mouse liver at 10 mg/kg, po
- Type: ADME, organism-based
- Parameters: time < 24 hr, dose 10 mg/kg, route po

| Chemical smiles | Units | AUC(0-t) at 24 h |
| --- | --- | --- |
| COC(=O)N1C[C@@H](C)N(c2ncc3[nH]nc(-c4ccc(N5CCN(C)CC5)cc4)c3n2)[C@@H](C)C1 | µM·h | 376 |

Reference source: ChEMBL document CHEMBL5120943
